Origin of the recorded values: patent US20260234276A1

SYSTEM UNDER TEST: human CCR8 (human, UniProt P51685 1-355)
ASSAY SUMMARY: cell-based or functional assay
Could you mark each record TRUE if its hCCL1 (100 nM) residual response, Protocol #3, mAb 0.5 µg/mL falls strictly under 80%, and FALSE if it equals or exceeds it?

BINDER	CATEGORY
3-29 (antibody, V domains shown) VH: QVHLVETGGGLVRPGNSLKLSCVTSGFTLSNYRMHWLRQPPGKRLEWIAVIKVKSDNYGANYAESVKGRFTISRDDAKSSVYLQMNRLREEDTATYYCSRPDGFSPFVYWGQGTLVTVSA VL: DIKMTQSPSSMYASLGERVTITCKASQDINSYLSWFQQKPGKSPKTLIYRANRLVDGVPSRFSGSGSGQDYFLTISSLEYEDMGIYYCLQYGEFPPTFGAGTKLELK	TRUE
3-21 (antibody, V domains shown) VH: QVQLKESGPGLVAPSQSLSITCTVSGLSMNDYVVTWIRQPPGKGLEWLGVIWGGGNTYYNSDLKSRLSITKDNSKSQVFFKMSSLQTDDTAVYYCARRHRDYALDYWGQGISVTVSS VL: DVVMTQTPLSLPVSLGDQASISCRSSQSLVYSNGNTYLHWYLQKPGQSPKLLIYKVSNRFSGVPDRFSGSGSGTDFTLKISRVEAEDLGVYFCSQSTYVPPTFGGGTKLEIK	FALSE
3-45 (antibody, V domains shown) VH: EVQLVETGGGLVQPKGSLKLSCAASGFTFNANAMNWVRQAPGKGLEWVARIRSKSNNYATYYADSVKDRFTISRDDSQSMLYLQMNNLKTEDTAMYYCVRGSDNYIFYAMDYWGQGTSVTVSS VL: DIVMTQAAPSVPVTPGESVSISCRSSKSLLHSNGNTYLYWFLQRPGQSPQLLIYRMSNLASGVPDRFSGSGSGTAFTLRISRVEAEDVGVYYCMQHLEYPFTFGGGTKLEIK	TRUE
3-32 (antibody, V domains shown) VH: EVQLVESGGGLVQPKGSLKLSCAASGFTFNAYAMNWVRQAPGKGLEWLARIRSKSNNYATYYADSVKDRFTISRDDSQSMFYLQMNNLKSEDTAMYYCVRGREAYYRYDGGYYAMDYWGQGTSVTVSS VL: EIVMTQAALSAPVTPGESVSMSCRSSKSLLHSNGNTYLYWFLQRPGQSPQLLIYRMSNLASGVPDRFSGSGSGTAFTLRISRVEAEDVGVYYCMQHLEYPFTFGSGTKLEIK	TRUE
3-43 (antibody, V domains shown) VH: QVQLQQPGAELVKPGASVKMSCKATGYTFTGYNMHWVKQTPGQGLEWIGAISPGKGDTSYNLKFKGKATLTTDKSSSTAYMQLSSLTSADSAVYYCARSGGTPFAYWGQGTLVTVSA VL: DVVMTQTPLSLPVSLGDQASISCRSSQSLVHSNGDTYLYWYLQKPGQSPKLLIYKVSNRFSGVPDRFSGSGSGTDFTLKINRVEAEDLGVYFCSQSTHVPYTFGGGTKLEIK	FALSE
